protocol-summary: qHTS of pediatric cancer cell lines to identify multiple opportunities for drug repurposing: Primary screen for BT-37 cells (AID 1347094)
test-settings: BT-37 viability, CellTiter-Glo luminescence, 48 h; series mostly up to 57.3 µM
Inconclusive results are not listed. Active and inactive are the calls of the source. The call rests on the fitted dose curve; in most records, active means well fitted cell-killing curve with a large enough effect; inconclusive means small, poorly fitted or top-dose-only effect; inactive means flat fitted curve, though single readings scatter.
Answer with one of the outcomes given here: active, inactive

Sample answers from the record:
COc1c(N2C[C@@H]3CCCN[C@H]3C2)c(F)cc2c(=O)c(C(=O)O)cn(C3CC3)c12 = inactive
O=C(c1ccc(Nc2nccc(-c3cc4ccccc4s3)n2)cc1)N1CCC(N2CCCC2)CC1 = active
CN1CCN(c2cc(C(=O)Nc3ccc4c(c3)-c3c(c(C(N)=O)nn3-c3ccc(F)cc3)CC4)c(Cl)cn2)CC1 = active

How did this test come out for CC(C)c1cc(-c2n[nH]c(=O)n2-c2ccc3c(ccn3C)c2)c(O)cc1O ?
active

Another molecule: Cc1[nH]c2ccccc2c1CCNCc1ccc(C=CC(=O)NO)cc1
active

Another molecule: Cc1cc(N2CCOCC2)cc2[nH]c(-c3c(NC[C@@H](O)c4cccc(Cl)c4)cc[nH]c3=O)nc12
active

---

System: Tov112D
protocol-summary: Primary qHTS to identify gynecologic anti-cancer compounds using libraries of approved drugs and bioactive compounds (AID 1345084); further: nearly all actives have a fitted effect of over 55% in size
test-settings: Gynecologic cancer cell panel viability, ATPlite luminescence, 48 h; series mostly up to 57.5 µM
Results filed as inconclusive are left out. Activity calls are given as the source filed them. The call rests on the fitted dose curve; in most records, active means well fitted cell-killing curve with a large enough effect; inconclusive means small, poorly fitted or top-dose-only effect, or effect the other way; inactive means flat fitted curve, though single readings scatter.
Answer with one of the outcomes given here: active, inactive

Sample answers from the record:
C=CC(=O)N1CCC[C@@H](n2nc(-c3ccc(Oc4ccccc4)cc3)c3c(N)ncnc32)C1 = inactive
CC(=O)SC[C@@H](C)C(=O)N1CCC[C@H]1C(=O)N[C@@H](Cc1ccccc1)C(=O)O = inactive
O=c1c2ccccc2nc2n1CCc1c-2[nH]c2ccccc12 = inactive
Cc1nc2ccc(CN(C)c3ccc(C(=O)N[C@@H](CCC(=O)O)C(=O)O)s3)cc2c(=O)[nH]1 = active
O=C(Nc1cc(C(F)(F)F)cc(C(F)(F)F)c1)c1cc(Cl)ccc1O = active

How did this test come out for COC(=O)Nc1nc2ccc(C(=O)c3ccc(F)cc3)cc2[nH]1 ?
active

Another compound: OCCCNc1cc(-c2ccnc(Nc3cccc(Cl)c3)n2)ccn1
active

Another compound: CC(C)c1noc(N2CCC(COc3ccc(-c4ccc(S(C)(=O)=O)cc4)nc3)CC2)n1
inactive

Another compound: Cc1cn2cc(C(=O)N(C)CCO)cc(N[C@@H]3CCOc4cccc(C)c43)c2n1
inactive

Another compound: NC1(Cc2ccc(Cl)cc2)CCN(c2ncnc3[nH]ccc23)CC1
inactive

Another compound: COc1cccc2nc(-c3cccs3)nc(NN3C(=O)C=C(C)C3=O)c12
active

Another compound: C#Cc1cccc(Nc2ncnc3cc(OC)c(OCCCCCCC(=O)NO)cc23)c1
active

---

protocol-summary: qHTS to identify inhibitors of the type 1 interferon - major histocompatibility complex class I in skeletal muscle: primary screen against the NCATS Mechanism Interrogation Plate v5.0 (MIPE) Libary (AID 1347411); further: nearly all actives have a fitted effect of over 65% in size
test-settings: iHSKM cells + IFN-b, HiBiT-tagged MHC-I luminescence, 24 h; series mostly up to 45.8 µM
Records with an inconclusive call do not appear. Calls of active or inactive are those of the source. The call rests on the fitted dose curve; in most records, active means well fitted inhibition curve with a large enough effect; inconclusive means small, poorly fitted or top-dose-only effect; inactive means no such curve, though single readings can be large or run the other way.
Answer with one of the outcomes given here: YES (active), NO (inactive)

Sample answers from the record:
CCN1CCN(CC(=O)Nc2ccc(-c3cccc4c(=O)cc(N5CCOCC5)oc34)c3sc4ccccc4c23)CC1 = NO
CN(C)CCCN=c1c2ccccc2n(C)c2[nH]c(=O)n(C)c(=O)c12 = YES
Cc1cn2cc(C(=O)N(C)CCO)cc(N[C@@H]3CCOc4cccc(C)c43)c2n1 = NO
CC(C)Nc1cc(C(F)(F)F)cc2nc(NC(=O)c3cccnc3)nn12 = NO
Cc1cn(-c2cc(NC(=O)c3ccc(C)c(Nc4nccc(-c5cccnc5)n4)c3)cc(C(F)(F)F)c2)cn1 = NO
C=CC(=O)Nc1cc2c(Nc3ccc(F)c(Cl)c3)ncnc2cc1OCCCN1CCOCC1 = YES

How did this test come out for COc1cc(C(=O)NS(=O)(=O)c2ccccc2C)ccc1Cc1cn(C)c2ccc(NC(=O)OC3CCCC3)cc12 ?
NO

Another compound: COc1cc2nccc(Oc3ccc(NC(=O)C4(C(=O)Nc5ccc(F)cc5)CC4)cc3)c2cc1OC
YES

Another compound: O=C(O)Cn1nnc(-c2cc(N3CCC(Oc4cc(F)ccc4Br)CC3)no2)n1
NO

Another compound: Cc1[nH]nc2ccc(-c3cncc(OC[C@@H](N)Cc4ccccc4)c3)cc12
YES

Another compound: Nc1ccccc1NC(=O)c1ccc(CNc2nccc(-c3cccnc3)n2)cc1
YES
